Conditions: victivallis vadensis, 12 h, 2 µM
Description: The drug is tested on Victivallis vadensis strain: ATCC BAA-548 for biotransformation. The drug concentrations were measured before and after a 12-h incubation by liquid-chromatography-coupled mass spectrometry (LC–MS)
measurement.kind: Bacterial Biotransformation

Known results for compounds:
- COc1ccccc1OCC(O)COC(N)=O (configuration not stated): Compound NOT metabolized
- CCOC(=O)[C@H](CCc1ccccc1)N[C@@H](C)C(=O)N1[C@H](C(=O)O)C[C@@H]2CCC[C@@H]21: Compound NOT metabolized
- COC1=CC(=O)C[C@@H](C)[C@]12Oc1c(Cl)c(OC)cc(OC)c1C2=O: Compound NOT metabolized
- O=C1C(CC[S+]([O-])c2ccccc2)C(=O)N(c2ccccc2)N1c1ccccc1 (configuration not stated): Compound NOT metabolized
- NS(=O)(=O)c1cc2c(cc1Cl)N=C(CSCc1ccccc1)NS2(=O)=O [BENZTHIAZIDE]: Compound NOT metabolized

Which Bacterial Biotransformation is listed for CC(C)(C)NCC(O)c1cc(Cl)c(N)c(Cl)c1 (configuration not stated) ?
Compound NOT metabolized
